Test system: MS2 coat protein
Experiment: apparent KD of MS2 coat protein; designed switch direction (-1 OFF switch, 1 ON switch): 1; higher = weaker reporter binding
Settings: Eterna round: R95; input ligand: FMN 200 uM
attribute_measured: apparent KD of MS2 coat protein (nM)
Respond with the bare value in nM.

[
  {
    "sequence_string": "AAAAGACAUGAGGAUCACCCAUGUAUGAAAAGUACAGGAUAUCACGCGCUAAAAUGCGAGUGAGAAGGGUGAAAAU [Oronen] (puzzle: Same State 1)",
    "data_value": 4350
  }
]

Would you kindly share the measured apparent KD of MS2 coat protein for ACCAAUCCAAUAAAACAAGCGUGCUCGUCACAUGAGGAUCACCCAUGUUCAAGCGCUGUUCCUAAUUCCUCAGCGCC [Ortiat] (puzzle: Sensor for hsa-mir-208a) ?
72.3

Which apparent KD of MS2 coat protein is listed for GGUCCAGCCUGAGCUGGACAAAAGCAUGUACAUGAGGAUCACCCAUGUCAUGUAUAAGCUUUUUGCUCGUCUUAAAA [JL mod - D87 - 11] (puzzle: Sensor for hsa-mir-208a) ?
20.4

Recorded apparent KD of MS2 coat protein of CGCCGACAUGAGGAUCACCCAUGUGAGCGACUCACAGGAUAUACGCGAUAACAAAGUCGCGUAGAAGGGUGCUCCU [Iscezaso] (puzzle: Same State 1) , please.
23.4

Report apparent KD of MS2 coat protein for AUUUAACAAGCUUUUUGCUCGUCUUAUAAACAUGAGGAUCACCCAUGUAAUAGCGUGAGAGUAAAUUAAUAAAUAAU [JMF 83] (puzzle: Sensor for hsa-mir-208a) please.
14.5

# apparent KD of MS2 coat protein lookup, item AUUAAACAUGAGGAUCACCCAUGUCAACAAAGUCGAGGAUAUGGGCAUAUUAUCUAAUAACCAGAAGGCGAAUAAU [salish99_ss1_r3_085] (puzzle: Same State 1)
43.8

# input sequence: UGGAUCUAGGCUUGCCUGGGUCCAUGCUGACAUGAGGAUCACCCAUGUGCAUCCUACAAGCUUUUUGCUUGUCAGUU (puzzle: Sensor for hsa-mir-208a) ; wanted: its apparent KD of MS2 coat protein
232

Any idea what its apparent KD of MS2 coat protein is? The sequence is AAAGAACAUGAGGAUCACCCAUGUGGAAGAGGCACAGGAUAUCACCUCGCAAGUGCAAGGUGAGAAGGGUGAUGAU [Islaonen] (puzzle: Same State 1)
123

Consider the sequence GUAUCUACAGGUUGCAAUGCUCGUCGGAUACAUGAGGAUCACCCAUGUUAUAGCCCUGUGCUUGCGCAGGGCUGAUU [Sensor for hsa-mir-208a ( MOD of Tearor )] (puzzle: Sensor for hsa-mir-208a) and give its measured apparent KD of MS2 coat protein.
46.8

# credit: the supplement of paper PMC9170038
